# TESTED_TARGET: human orexin 1 receptor (hOX1R) (Homo sapiens)
# PROTOCOL_TEXT: Measurement of orexin antagonist activity (intracellular Ca2+ fluorescence, FDSS) in CHO cells expressing hOX1R
# PROTOCOL_CONDITIONS: CHO cells forcibly expressing hOX1R; ligand (two-amino-acid-substituted human orexin-A) 300 pM; Fluo 4-AM; read-out: IC50 value OX1
pIC50: −log10 of the molar value.
READOUT_KIND: pIC50

• Cc1ccc(-n2nccn2)c(C(=O)N(C)CCc2cc(-c3ccc(F)cn3)on2)c1 = 7.78
• CCN(CCc1ccn(-c2ccc(F)cc2)n1)C(=O)c1ccccc1-c1ncccn1 = 8.72
• Cc1ccc(-n2nccn2)c(C(=O)N(C)CCc2noc(-c3ccc(F)cn3)n2)c1 = 7.08
• CCN(CCc1noc(-c2ccc(F)c(F)c2)n1)C(=O)c1cc(C)ccc1-n1nccn1 = 8.96
• CCN(CCc1ccn(-c2ccc(F)cn2)n1)C(=O)c1cc(C)ccc1-c1ncccn1 = 8.15
• CCN(CCc1cnn(-c2ccc(F)cn2)c1)C(=O)c1ccccc1-n1nccn1 = 8.38
• CCN(CCc1cnn(-c2ccc(F)cn2)c1)C(=O)c1cc(C)ccc1-n1nccn1 = 8.74
• CCN(CCc1ccn(-c2ccc(F)cn2)n1)C(=O)c1ccccc1-c1ncccn1 = 9.05
• CN(CCc1noc(-c2ccc(F)c(F)c2)n1)C(=O)c1ccccc1-n1nccn1 = 7.83
• CCN(CCc1noc(-c2ccc(F)cc2)n1)C(=O)c1cc(C)ccc1-n1nccn1 = 8.92
• CCN(CCc1ccn(-c2ccc(F)c(F)c2)n1)C(=O)c1ccccc1-n1nccn1 = 8.80
• CCN(CCc1noc(-c2ccc(F)cc2)n1)C(=O)c1cc(F)ccc1-c1ncccn1 = 8.77
• CCN(CCc1ccn(-c2ccc(F)cn2)n1)C(=O)c1cc(F)ccc1-c1ncccn1 = 8.77
• CCN(CCc1ccn(-c2cccc(C(F)(F)F)n2)n1)C(=O)c1ccccc1-n1nccn1 = 7.75
• CN(CCc1ccn(-c2ccc(F)cn2)n1)C(=O)c1cc(F)ccc1-n1nccn1 = 7.84
• CCN(CCc1ccn(-c2ccc(F)cn2)n1)C(=O)c1ccc(F)cc1-n1nccn1 = 9.40
• CCN(CCc1ccn(-c2ccc(F)cn2)n1)C(=O)c1cc(F)ccc1-n1nccn1 = 7.96
• CCN(CCc1noc(-c2ccc(F)cn2)n1)C(=O)c1cc(C)ccc1-n1nccn1 = 8.72
• CCN(CCc1ccn(-c2cccc(C)n2)n1)C(=O)c1cc(F)ccc1-c1ncccn1 = 8.09
• CCN(CCc1ccn(-c2ccc(F)cc2)n1)C(=O)c1cc(F)ccc1-c1ncccn1 = 8.96
• CCN(CCc1noc(-c2ccc(F)c(F)c2)n1)C(=O)c1cc(F)ccc1-c1ncccn1 = 7.21
• CN(CCc1noc(-c2ccc(F)cn2)n1)C(=O)c1ccccc1-n1nccn1 = 5.92
• CCN(CCc1noc(-c2ccc(F)cn2)n1)C(=O)c1cc(C)ccc1-c1ncccn1 = 6.79
• CCN(CCc1ccn(-c2ccc(F)c(F)c2)n1)C(=O)c1cc(F)ccc1-c1ncccn1 = 8.89
• CCN(CCc1ccn(-c2ccc(F)cn2)n1)C(=O)c1ccccc1-n1nccn1 = 9.30
• CCN(CCc1noc(-c2ccc(F)cc2)n1)C(=O)c1cc(C)ccc1-c1ncccn1 = 9.15
• CCN(CCc1cc(-c2ccc(F)cn2)no1)C(=O)c1cc(C)ccc1-n1nccn1 = 7.77
• CCN(CCc1ccn(-c2cc(C(F)(F)F)ccn2)n1)C(=O)c1ccccc1-n1nccn1 = 7.21
• CCN(CCc1ccn(-c2ccc(F)cn2)n1)C(=O)c1c(F)cccc1-n1nccn1 = 8.80
• CCN(CCc1noc(-c2ccc(F)cn2)n1)C(=O)c1cc(F)ccc1-c1ncccn1 = 6.01
• CCN(CCc1cn(-c2ccc(F)cn2)cn1)C(=O)c1cc(C)ccc1-n1nccn1 = 8.05
• CCN(CCc1noc(-c2ccc(F)cc2)n1)C(=O)c1ccccc1-n1nccn1 = 8.80
• CCN(CCc1ccn(-c2ccc(F)cn2)n1)C(=O)c1cc(C)ccc1-n1nccn1 = 8.74
• Cc1ccc(-n2nccn2)c(C(=O)N(C)CCc2ccn(-c3ccc(F)cn3)n2)c1 = 8.68

----------
Documented log10(IC50) across a set of compounds
# TESTED_TARGET: UniProtKB O43614
# Sequence (O43614 whole entry): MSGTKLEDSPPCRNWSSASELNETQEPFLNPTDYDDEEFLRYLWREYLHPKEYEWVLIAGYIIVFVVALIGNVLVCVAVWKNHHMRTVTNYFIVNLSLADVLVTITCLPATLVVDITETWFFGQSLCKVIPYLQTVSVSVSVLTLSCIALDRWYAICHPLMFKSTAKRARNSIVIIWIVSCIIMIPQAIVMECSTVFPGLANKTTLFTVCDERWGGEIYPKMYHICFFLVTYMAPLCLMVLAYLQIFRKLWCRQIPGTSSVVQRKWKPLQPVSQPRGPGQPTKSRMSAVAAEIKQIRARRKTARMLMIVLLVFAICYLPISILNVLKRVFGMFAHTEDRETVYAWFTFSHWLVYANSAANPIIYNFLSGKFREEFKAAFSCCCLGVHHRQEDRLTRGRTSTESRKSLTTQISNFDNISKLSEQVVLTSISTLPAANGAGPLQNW
# PROTOCOL_TEXT: Measurement of orexin antagonist activity (intracellular Ca2+ fluorescence, FDSS) in CHO cells expressing hOX2R
# PROTOCOL_CONDITIONS: CHO cells forcibly expressing hOX2R; ligand (two-amino-acid-substituted human orexin-A) 3 nM; Fluo 4-AM; read-out: IC50 value OX2
READOUT_KIND: log10(IC50) (log10 of the value in nM)

• CN(CCc1ccn(-c2ccc(F)cn2)n1)C(=O)c1cc(F)ccc1-n1nccn1 = 2.28
• CN(CCc1noc(-c2ccc(F)cc2)n1)C(=O)c1ccccc1-n1nccn1 = 2.06
• CCN(CCc1noc(-c2ccc(F)cn2)n1)C(=O)c1ccccc1-n1nccn1 = 2.79
• CCN(CCc1ccn(-c2ccc(F)cc2)n1)C(=O)c1ccccc1-n1nccn1 = 1.03
• CCN(CCc1ccn(-c2ccc(F)cn2)n1)C(=O)c1cc(C)ccc1-c1ncccn1 = 1.14
• CN(CCc1ccn(-c2ccc(F)cn2)n1)C(=O)c1cc(Cl)ccc1-n1nccn1 = 1.48
• CCN(CCc1cn(-c2ccc(F)cn2)cn1)C(=O)c1cc(C)ccc1-n1nccn1 = 0.53
• CCN(CCc1ccn(-c2ccc(F)cn2)n1)C(=O)c1cc(F)ccc1-c1ncccn1 = 1.12
• CCN(CCc1ccn(-c2ccc(F)cc2)n1)C(=O)c1cc(F)ccc1-c1ncccn1 = 1.26
• CCN(CCc1ccn(-c2ccc(F)cn2)n1)C(=O)c1c(F)cccc1-n1nccn1 = 0.80
• CCN(CCc1noc(-c2ccc(F)cn2)n1)C(=O)c1cc(C)ccc1-n1nccn1 = 1.06
• CCN(CCc1cnn(-c2ccc(F)cn2)c1)C(=O)c1cc(C)ccc1-n1nccn1 = 0.72
• CCN(CCc1noc(-c2ccc(F)c(F)c2)n1)C(=O)c1cc(F)ccc1-c1ncccn1 = 1.84
• CCN(CCc1ccn(-c2cc(C(F)(F)F)ccn2)n1)C(=O)c1ccccc1-n1nccn1 = 2.58
• CCN(CCc1noc(-c2ccc(F)cc2)n1)C(=O)c1ccccc1-n1nccn1 = 1.50
• CCN(CCc1cnn(-c2ccc(F)cn2)c1)C(=O)c1ccccc1-n1nccn1 = 1.78
• CCN(CCc1noc(-c2ccc(F)cn2)n1)C(=O)c1cc(C)ccc1-c1ncccn1 = 2.20
• CCN(CCc1ccn(-c2ccc(F)cn2)n1)C(=O)c1cc(C)ccc1-n1nccn1 = 0.58
• Cc1ccc(-n2nccn2)c(C(=O)N(C)CCc2noc(-c3ccc(F)cc3)n2)c1 = 1.14
• CCN(CCc1ccn(-c2cccc(C)n2)n1)C(=O)c1ccccc1-n1nccn1 = 1.01
• CCN(CCc1noc(-c2ccc(F)cc2)n1)C(=O)c1cc(C)ccc1-n1nccn1 = 0.79
• Cc1ccc(-n2nccn2)c(C(=O)N(C)CCc2ccn(-c3ccc(F)cn3)n2)c1 = 0.90
• CCN(CCc1noc(-c2ccc(F)c(F)c2)n1)C(=O)c1ccccc1-n1nccn1 = 1.03
• CCN(CCc1ccn(-c2ccc(F)cn2)n1)C(=O)c1ccccc1-c1ncccn1 = 0.87
• Cc1ccc(-n2nccn2)c(C(=O)N(C)CCc2cc(-c3ccc(F)cn3)on2)c1 = 1.89
• CCN(CCc1ccn(-c2ccc(F)cn2)n1)C(=O)c1cc(F)ccc1-n1nccn1 = 1.40
• CCN(CCc1noc(-c2ccc(F)cc2)n1)C(=O)c1cc(C)ccc1-c1ncccn1 = 1.24
• Cc1ccc(-n2nccn2)c(C(=O)N(C)CCc2cnn(-c3ccc(F)cn3)c2)c1 = 0.93
• CN(CCc1noc(-c2ccc(F)c(F)c2)n1)C(=O)c1ccccc1-n1nccn1 = 2.12
• CCN(CCc1cc(-c2ccc(F)cn2)no1)C(=O)c1cc(C)ccc1-n1nccn1 = 1.42
• CCN(CCc1ccn(-c2ccc(F)cn2)n1)C(=O)c1ccccc1-n1nccn1 = 0.38
• CCN(CCc1ccn(-c2ccc(F)c(F)c2)n1)C(=O)c1cc(F)ccc1-c1ncccn1 = 1.05
• CN(CCc1ccn(-c2ccc(F)cn2)n1)C(=O)c1ccccc1-n1nccn1 = 2.12
• CCN(CCc1noc(-c2ccc(F)cc2)n1)C(=O)c1cc(F)ccc1-c1ncccn1 = 1.89

----------
# TESTED_TARGET: human orexin 1 receptor (hOX1R) (Homo sapiens, UniProt O43613)
# Sequence (O43613 whole entry): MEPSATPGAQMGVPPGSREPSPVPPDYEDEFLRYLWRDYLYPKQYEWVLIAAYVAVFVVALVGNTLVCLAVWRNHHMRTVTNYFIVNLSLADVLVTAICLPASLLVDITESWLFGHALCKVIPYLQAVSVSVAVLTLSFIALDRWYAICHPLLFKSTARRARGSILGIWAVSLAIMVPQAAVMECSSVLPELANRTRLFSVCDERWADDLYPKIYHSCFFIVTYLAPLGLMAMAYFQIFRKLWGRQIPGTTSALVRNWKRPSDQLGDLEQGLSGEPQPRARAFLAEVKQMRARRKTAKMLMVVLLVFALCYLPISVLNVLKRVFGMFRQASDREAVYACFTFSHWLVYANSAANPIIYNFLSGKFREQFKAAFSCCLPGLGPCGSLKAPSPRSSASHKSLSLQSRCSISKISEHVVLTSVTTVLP
# PROTOCOL_TEXT: Measurement of orexin antagonist activity (intracellular Ca2+ fluorescence, FDSS) in CHO cells expressing hOX1R
# PROTOCOL_CONDITIONS: CHO cells forcibly expressing hOX1R; ligand (two-amino-acid-substituted human orexin-A) 300 pM; Fluo 4-AM; read-out: IC50 value OX1
READOUT_KIND: IC50 (nM)

* CCN(CCc1noc(-c2ccc(F)c(F)c2)n1)C(=O)c1ccccc1-n1nccn1 | 9.7
* CN(CCc1ccn(-c2ccc(F)cn2)n1)C(=O)c1ccccc1-n1nccn1 | 10
* Cc1ccc(-n2nccn2)c(C(=O)N(C)CCc2noc(-c3ccc(F)c(F)c3)n2)c1 | 1.9
* CCN(CCc1ccn(-c2ccc(F)cc2)n1)C(=O)c1ccccc1-n1nccn1 | 2.2
* Cc1ccc(-n2nccn2)c(C(=O)N(C)CCc2noc(-c3ccc(F)cc3)n2)c1 | 2.4
* CCN(CCc1ccn(-c2cccc(C)n2)n1)C(=O)c1ccccc1-n1nccn1 | 3
* CCN(CCc1ccn(-c2ccc(F)cn2)n1)C(=O)c1c(F)cccc1-c1ncccn1 | 11.6
* CN(CCc1ccn(-c2ccc(F)cn2)n1)C(=O)c1cc(Cl)ccc1-n1nccn1 | 3.3
* CCN(CCc1noc(-c2ccc(F)cn2)n1)C(=O)c1ccccc1-n1nccn1 | 791
* CN(CCc1noc(-c2ccc(F)cc2)n1)C(=O)c1ccccc1-n1nccn1 | 11.6
* Cc1ccc(-n2nccn2)c(C(=O)N(C)CCc2cnn(-c3ccc(F)cn3)c2)c1 | 0.7
* CCN(CCc1cc(-c2ccc(F)cn2)on1)C(=O)c1cc(C)ccc1-n1nccn1 | 1.8
